# assay_method_text: chemical genetic growth profiling, strain panel (AID 1159580);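 also: tested at 20 µM; growth read once vehicle control cultures reached saturation at 30 °C; lower values mean less growth of the strain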
# condition_context: S. cerevisiae deletion strains, growth OD, locus YNL153C, strain GIM3, active compounds read low
Among all 5,500 compounds or so, about 2,000 (36%) were called active. Inconclusive results (about 18%) are left out. The list shows a part of the results.
Rule for this label: TRUE means normalized growth is less than 1; FALSE means normalized growth is at least 1.

Here's what some known entries look like.
{"compound": "CCCc1ccc(OC)cc1NC(C)=O", "label_class": "FALSE"}
{"compound": "O=[N+]([O-])c1cc(C(F)(F)F)ccc1NCCCn1ccnc1", "label_class": "FALSE"}
{"compound": "CC(=O)c1csc([N+](=O)[O-])c1", "label_class": "TRUE"}

Next compound, please.
Ask: Hello, is normalized growth of the following compound strictly smaller than 1? COc1ccc2c(=O)c(-c3cc4c(cc3OC)OCO4)coc2c1
Result: FALSE
